target: McpN (PA2788) chemoreceptor (Pseudomonas aeruginosa); experiment: biochemical
Sequence (Q9I055 44-179): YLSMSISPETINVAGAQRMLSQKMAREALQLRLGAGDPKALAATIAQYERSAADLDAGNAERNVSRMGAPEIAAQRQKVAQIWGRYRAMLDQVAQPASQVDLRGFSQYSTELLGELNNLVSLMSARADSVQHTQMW
reportedMetric: pKd
Scale explanation: pKd corresponds to minus log10 of a concentration expressed in moles per litre.

Query: pKd; subject: O=[N+]([O-])O [nitrate]
4.33
